test-target: dopamine D-2 receptor (Rattus norvegicus, UniProt P61169)
Sequence (P61169 whole entry): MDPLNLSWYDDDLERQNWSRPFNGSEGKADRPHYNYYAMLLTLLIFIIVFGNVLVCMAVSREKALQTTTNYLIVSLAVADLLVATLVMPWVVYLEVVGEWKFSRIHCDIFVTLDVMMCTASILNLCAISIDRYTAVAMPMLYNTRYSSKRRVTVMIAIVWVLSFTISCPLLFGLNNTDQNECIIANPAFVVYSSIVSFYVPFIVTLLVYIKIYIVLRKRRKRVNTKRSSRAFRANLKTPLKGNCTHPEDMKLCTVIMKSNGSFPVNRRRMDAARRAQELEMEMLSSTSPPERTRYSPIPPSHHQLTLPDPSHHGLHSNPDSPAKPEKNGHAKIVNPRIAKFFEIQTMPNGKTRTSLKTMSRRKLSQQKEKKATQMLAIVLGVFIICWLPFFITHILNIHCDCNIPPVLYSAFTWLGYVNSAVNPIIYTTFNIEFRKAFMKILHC
test-protocol: biochemical
Assay type: binding
condition-summary: rat caudate, [125I]-p-aminophenylethyl spiroperidol; read-out: D-2 Ki
Experimental: Homogenized rat caudate was the source of the D-2 receptors. […] The molar affinity of the compound for the receptor binding site was calculated by the same method used for the D-1 receptor assay, assuming a competitive interaction between the compound and the radiolabeled ligand.
Counter-ions that a name gives are not always drawn.
reported-property: Ki

Examples from the recorded data:
{"compound": "Oc1ccc2c(c1O)CC1(CCCC1)C1=C2CNCC1 [Example 204]", "reported-property": "Ki", "experimental-result": "1.5 µM"}
{"compound": "Oc1ccc2c(c1O)C[C@@H](c1ccccc1)C[C@H]2[C@H]1CCCN1 (relative stereo) [Example 180, Hydrobromide]", "reported-property": "Ki", "experimental-result": "4.7 µM"}
{"compound": "NC[C@@H]1O[C@H](C2CCCCCCC2)Cc2c1ccc(O)c2O (relative stereo) [Example 76]", "reported-property": "Ki", "experimental-result": "0.44 µM"}
{"compound": "CN(C)C[C@@H]1O[C@H](C2(c3ccccc3)CCCCC2)Cc2c1ccc(O)c2O (relative stereo) [Example 229]", "reported-property": "Ki", "experimental-result": "3.6 µM"}

Inquiry: Provide value of Ki for this record tested with dopamine D-2 receptor (Rattus norvegicus, UniProt P61169): Oc1ccc2c(c1O)CC1(CCCCCC1)C1=C2CNCC1 [Example 206]
Reply text: 1.6 µM

Inquiry: Provide value of Ki for this record tested with dopamine D-2 receptor (Rattus norvegicus, UniProt P61169): CCNCC1=CC(c2ccccc2)Cc2c1ccc(O)c2O (centres unmarked) [Example 153]
Reply text: > 10 µM

Inquiry: Provide value of Ki for this record tested with dopamine D-2 receptor (Rattus norvegicus, UniProt P61169): CNC[C@H]1O[C@@H](CCN)Cc2c1ccc(O)c2O (relative stereo) [Example 173]
Reply text: 14 µM

Inquiry: Provide value of Ki for this record tested with dopamine D-2 receptor (Rattus norvegicus, UniProt P61169): CCCCCC(NC(C)=O)[C@@H]1Cc2c(ccc(O)c2O)[C@H](CN)O1 (relative stereo) [Example 163]
Reply text: 0.83 µM

Inquiry: Provide value of Ki for this record tested with dopamine D-2 receptor (Rattus norvegicus, UniProt P61169): Cc1cc2c(c(O)c1O)C[C@@H](C1CCCCC1)O[C@H]2CN (relative stereo) [Example 177, Hydrochloride]
Reply text: 6.6 µM

Inquiry: Provide value of Ki for this record tested with dopamine D-2 receptor (Rattus norvegicus, UniProt P61169): NC[C@@H]1O[C@H](c2ccccc2)Cc2c1ccc(O)c2O [Example 54]
Reply text: 0.91 µM

Inquiry: Provide value of Ki for this record tested with dopamine D-2 receptor (Rattus norvegicus, UniProt P61169): COC(=O)Oc1ccc2c(c1OC(=O)OC)CC(c1ccccc1)C=C2CN (centres unmarked) [Example 23]
Reply text: > 10 µM

Inquiry: Provide value of Ki for this record tested with dopamine D-2 receptor (Rattus norvegicus, UniProt P61169): CC(=O)NCC[C@H]1Cc2c(ccc(O)c2O)[C@@H](CN)O1 (relative stereo) [Example 172]
Reply text: > 10 µM

Inquiry: Provide value of Ki for this record tested with dopamine D-2 receptor (Rattus norvegicus, UniProt P61169): NC[C@H]1O[C@@H](CNC(=O)c2cccnc2)Cc2c1ccc(O)c2O (relative stereo) [Example 170]
Reply text: 0.14 µM

Inquiry: Provide value of Ki for this record tested with dopamine D-2 receptor (Rattus norvegicus, UniProt P61169): CNCC1OC2(CCCCCCCC2)Cc2c1ccc(O)c2O (centres unmarked) [Example 224]
Reply text: 2.3 µM

Inquiry: Provide value of Ki for this record tested with dopamine D-2 receptor (Rattus norvegicus, UniProt P61169): CC(C)(C)C1Cc2c(ccc(O)c2O)C(CN)O1 (centres unmarked) [Example 102]
Reply text: > 10 µM

Inquiry: Provide value of Ki for this record tested with dopamine D-2 receptor (Rattus norvegicus, UniProt P61169): NC[C@H]1O[C@@H](CN2CCCC2)Cc2c1ccc(O)c2O (relative stereo) [Example 156, Dihydrochloride]
Reply text: 16 µM

Inquiry: Provide value of Ki for this record tested with dopamine D-2 receptor (Rattus norvegicus, UniProt P61169): NC[C@H]1C[C@@H](c2cccc(O)c2)Cc2c1ccc(O)c2O (relative stereo) [Example 42]
Reply text: 3.9 µM
